- Assayed System: T1, human LAG-3 (full length, on the cell surface) (human, UniProt P18627 23-525)
- T1 construct: Full-length human LAG-3 expressed on cells; also called HEK293-hLAG-3; HEK293 cells transfected with LAG-3 gene
- T1 sequence: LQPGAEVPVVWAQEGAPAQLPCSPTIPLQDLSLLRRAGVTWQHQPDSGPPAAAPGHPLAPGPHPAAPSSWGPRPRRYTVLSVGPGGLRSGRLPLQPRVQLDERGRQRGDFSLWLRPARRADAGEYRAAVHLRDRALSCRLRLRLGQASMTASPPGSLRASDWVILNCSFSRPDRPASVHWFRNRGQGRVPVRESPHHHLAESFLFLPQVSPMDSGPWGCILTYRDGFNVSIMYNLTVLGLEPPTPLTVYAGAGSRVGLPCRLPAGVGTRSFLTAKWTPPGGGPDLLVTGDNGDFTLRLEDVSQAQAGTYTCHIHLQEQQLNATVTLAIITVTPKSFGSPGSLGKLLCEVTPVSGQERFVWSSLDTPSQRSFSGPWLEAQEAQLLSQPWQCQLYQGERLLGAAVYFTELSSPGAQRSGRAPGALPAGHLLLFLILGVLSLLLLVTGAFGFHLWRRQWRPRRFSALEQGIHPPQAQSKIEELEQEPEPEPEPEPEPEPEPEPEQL
- Procedure Summary: FACS, HEK293-hLAG-3; 0.064 nM
The entries below are paired with their reported Mean fluorescence intensity.
Just so you know, I need the unit written after the number.

>  <Binder>
409D4E10 (mouse antibody purified from hybridoma) (antibody, V domains shown, also called mAb112-409D4E10) VH: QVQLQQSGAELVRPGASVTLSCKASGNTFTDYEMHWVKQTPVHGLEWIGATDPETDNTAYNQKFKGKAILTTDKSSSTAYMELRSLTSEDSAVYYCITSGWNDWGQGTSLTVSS VL: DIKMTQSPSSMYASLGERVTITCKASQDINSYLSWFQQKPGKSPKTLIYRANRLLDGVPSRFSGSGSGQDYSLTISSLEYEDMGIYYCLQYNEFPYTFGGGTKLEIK

>  <Mean fluorescence intensity>
4.9 MFI

$$$$

Attention now shifts to the item below.
INPUT: // Mean fluorescence intensity lookup, key: 556F6B8 (mouse antibody purified from hybridoma) (antibody, V domains shown, also called mAb123-556F6B8) VH: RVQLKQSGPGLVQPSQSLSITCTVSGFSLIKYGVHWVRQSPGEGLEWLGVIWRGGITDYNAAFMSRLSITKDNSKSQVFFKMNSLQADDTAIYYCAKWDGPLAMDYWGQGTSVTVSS VL: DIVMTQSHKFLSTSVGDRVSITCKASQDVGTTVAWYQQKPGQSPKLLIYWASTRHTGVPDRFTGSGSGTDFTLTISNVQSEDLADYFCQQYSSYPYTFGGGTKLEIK
OUTPUT: 6.8 MFI
